- assay.explanation: in vitro
- condition.summary: PAMPA, pH 7.4
readout.type: Papp

smiles.input: CN[C@H](C(=O)N[C@H](C(=O)N(C)[C@H](/C=C(\C)C(=O)N[C@H](CCC(=O)O)C(=O)O)C(C)C)C(C)(C)C)C(C)(C)c1ccc(C(=O)OC(C)(C)C)cc1
readout.type: Papp
measured.result: < 0.1 ×10⁻⁶ cm/s
//
smiles.input: CN[C@H](C(=O)N[C@H](C(=O)N(C)[C@H](/C=C(\C)C(=O)N[C@H](CCC(=O)O)C(=O)O)C(C)C)C(C)(C)C)C(C)(C)c1cccc(C(F)(F)F)c1
readout.type: Papp
measured.result: < 0.1 ×10⁻⁶ cm/s
//
smiles.input: CCOC(=O)[C@@H](CCC(=O)O)NC(=O)/C(C)=C/[C@H](C(C)C)N(C)C(=O)[C@@H](NC(=O)[C@@H](NC)C(C)(C)c1cn(C)c2ccccc12)C(C)(C)C
readout.type: Papp
measured.result: 4.5 ×10⁻⁶ cm/s
